List of TGI values.
Tested on: IGROV1 ovarian
Test Protocol: NCI tumour cell line growth inhibition, 48 h

| Compound | TGI |
| --- | --- |
| O=C1/C(=C/c2cccc([N+](=O)[O-])c2)Sc2scc(-c3ccc([N+](=O)[O-])cc3)[n+]21 | 53.6 µM |
| O=c1[nH]c2cc([N+](=O)[O-])ccc2nc1/C(=N\Nc1ccccc1)C(O)c1ccc2c(c1)OCO2 (configuration not stated) | > 100 µM |
| O=[N+]([O-])c1cc(Cl)ccc1Sc1ccccc1 | > 100 µM |
| CCN(CCCl)c1cc(CN(C)C)cc(NC(=O)c2ccc(C(=O)Nc3cccc(CN(C)C)c3)cc2)c1 | 10 µM |
| O=[N+]([O-])c1cccc2c(N=Nc3ccc4ccccc4c3O)c(O)cc(S(=O)(=O)O)c12 | > 100 µM |
| COc1cc([N+](=O)[O-])c(OC)c2c(Nc3ccc(S(=O)(=O)O)c4cc(S(=O)(=O)O)cc(S(=O)(=O)O)c34)cc(C)nc12 | > 100 µM |
| O=C(O)/C=C\C(=O)Nc1ccc(S(=O)(=O)c2ccc(NC(=O)/C=C\C(=O)O)cc2)cc1 | > 100 µM |
| C/C(=C\CO)CC/C=C(\C)CNc1ccc([N+](=O)[O-])cc1 | > 100 µM |
| C[C@H]1[C@H](C)CC[C@]2(C(=O)OC3OC(CO)C(O)C(O)C3O)CC[C@]3(C)C(=CC[C@@H]4[C@@]5(C)C[C@H]6OC(=O)c7cc(O)c(O)c(O)c7-c7c(cc(O)c(O)c7O)C(=O)O[C@@H]6C(CO)(CO)[C@@H]5CC[C@]43C)[C@H]12 (some centres not stated) | > 100 µM |
| C=CCN1C(=O)/C(=C/c2ccc(C)cc2)N=C1SC1OC(COC(C)=O)C(OC(C)=O)C(OC(C)=O)C1OC(C)=O (configuration not stated) | > 100 µM |
| Cc1cc2c(cc1Cl)S/C(=C/C(=O)O)C(Nc1cccc3nsnc13)=NS2(=O)=O | > 78.3 µM |
| CCCCCCCCCCCC1CC(=O)NCCCN(C)CCCCN(C)CCCN1C (configuration not stated) | 3.22 µM |

* * *

Test system: CAKI-1 renal
Test Protocol: NCI tumour cell line growth inhibition, 48 h
The reader will find reported TGI values listed item by item below.

| Compound | TGI |
| --- | --- |
| COc1ccc(-c2c(C3=NCCCN3)nnn2-c2ccc([N+](=O)[O-])cc2)cc1 | > 100 µM |
| c1ccc([P+](CCCCCCCC[P+](c2ccccc2)(c2ccccc2)c2ccccc2)(c2ccccc2)c2ccccc2)cc1 | > 100 µM |
| S=C1NC2=C(CSC/C2=C\c2ccccc2)C(c2ccccc2)N1 (stereo not drawn) | > 100 µM |

* * *

System: SK-MEL-28 melanoma
Test Protocol: NCI tumour cell line growth inhibition, 48 h
# TGI values compiled below

| Compound | System | TGI |
| --- | --- | --- |
| Cc1cc(NS(=O)(=O)c2ccc(NC(NC(=O)C(C(F)(F)F)C(F)(F)F)(C(F)(F)F)C(F)(F)F)cc2)no1 | SK-MEL-28 melanoma | > 100 µM |
| O=C1[C@H]2ON(c3ccccc3)C(c3ccco3)[C@H]2C(=O)N1c1ccc(Cc2ccc(N3C(=O)[C@@H]4ON(c5ccccc5)C(c5ccco5)[C@@H]4C3=O)cc2)cc1 (stereo not given in full) | SK-MEL-28 melanoma | > 100 µM |
| C=CCNC(=O)N(CCC)CCCC(NC(C)=O)C(=O)NCc1ccccc1 (stereo not given) | SK-MEL-28 melanoma | > 100 µM |
| CN1N=C(c2ccncc2)OC1c1ccccc1F (stereo not given) | SK-MEL-28 melanoma | > 100 µM |
| Cc1nc(-c2cccnc2)sc1C(=O)/C=C/c1cccc([N+](=O)[O-])c1 | SK-MEL-28 melanoma | > 100 µM |
| COc1c(O)c(OC)c2oc(-c3ccc(O)cc3)c(OC)c(=O)c2c1O | SK-MEL-28 melanoma | > 100 µM |
| COc1ccc(C(=O)c2nc3ccccc3n2CC(=O)c2ccc(Cl)cc2)cc1 | SK-MEL-28 melanoma | > 100 µM |
| O=C1c2cccc(O)c2C(=O)c2c(OC3OC(CO)C(O)C(O)C3O)cccc21 (stereo not given) | SK-MEL-28 melanoma | > 100 µM |
| c1ccc([P+](CCCCCCCC[P+](c2ccccc2)(c2ccccc2)c2ccccc2)(c2ccccc2)c2ccccc2)cc1 | SK-MEL-28 melanoma | > 100 µM |
| O=C1C(C(O)(C(F)(F)F)C(F)(F)F)CCC1C(O)(C(F)(F)F)C(F)(F)F (stereo not given) | SK-MEL-28 melanoma | > 73.2 µM |

* * *

Test system: NCI-H23 lung
Test Protocol: NCI tumour cell line growth inhibition, 48 h
Known TGI of a selection of compounds
Outcome Measure: TGI

| Compound | Measured |
| --- | --- |
| Clc1ccc2c(c1)N(c1ncnc3ccc(-c4cnc5[nH]ncc5c4)cc13)CC2 | > 100 µM |
| CON(C)C(=O)C1CCCO1 (stereo not drawn) | > 100 µM |
| O=C(CC(=O)Nc1ccccc1)NNC(c1cc(N=Nc2ccc(Br)cc2)ccc1O)P(O)O (stereo not drawn) | > 10 µM |

* * *

Tested on: UO-31 renal
Test Protocol: NCI tumour cell line growth inhibition, 48 h
Documented TGI across a set of molecules

| Molecule | TGI |
| --- | --- |
| CC(C)=CCC[C@@H](C)C1=C(O)C(N)=C(C)C(=O)C1=O | > 71.1 µM |
| COc1ccc(/C=N/n2c(C)nc3c(sc(=S)n3-c3ccccc3)c2=O)cc1 | > 100 µM |
| CCNc1ncnc2sc(SCc3ccccc3)nc12 | > 100 µM |
| CC1=NNC(=O)C1C1CC(c2c[nH]c3ccccc23)=NN=C1Cl (stereo not drawn) | > 100 µM |
| C[C@]12CC[C@@H]3c4ccc(O)cc4CC[C@H]3[C@@H]1C/C(=C\c1ccc(C#N)cc1)C2=O | > 100 µM |
| CCN(CCCl)c1cc(CN(C)C)cc(NC(=O)c2ccc(C(=O)Nc3cccc(CN(C)C)c3)cc2)c1 | 76.3 µM |
| C[C@H]1[C@H](C)CC[C@]2(C(=O)OC3OC(CO)C(O)C(O)C3O)CC[C@]3(C)C(=CC[C@@H]4[C@@]5(C)C[C@H]6OC(=O)c7cc(O)c(O)c(O)c7-c7c(cc(O)c(O)c7O)C(=O)O[C@@H]6C(CO)(CO)[C@@H]5CC[C@]43C)[C@H]12 (stereo partly drawn) | > 100 µM |
| Cc1ccc(-n2nc(C(C)(C)C)cc2NC(=O)NCc2cc(F)ccc2Oc2ccc3c(cnn3CCO)c2)cc1 | > 55.5 µM |
| COC(=O)C1(O)C(c2ccccc2)=NC2(C)CCCC21 (stereo not drawn) | > 100 µM |
| CN(C)CCCNC(=O)c1c(O)c2ccccc2n(C)c1=O | > 100 µM |
| C[n+]1c(/C=C/c2ccc(O)c3ncccc23)[se]c2ccccc21 | 18.3 µM |
| Cc1c(-c2ccccc2)[nH]n(C2=NCCN2)c1=O | > 100 µM |
| COC(=O)C1C(=O)N(CCc2c[nH]c3ccccc23)C[C@@H]2CCC(=O)C[C@H]12 (stereo partly drawn) | > 100 µM |

* * *

Test system: SK-MEL-2 melanoma
Test Protocol: NCI tumour cell line growth inhibition, 48 h
Outcome Measure: TGI

| Compound | System | Measured |
| --- | --- | --- |
| COC1C(O)C(O[C@H]2CC[C@@]3(C)C(CC[C@@H]4[C@@H]3CC[C@]3(C)[C@@H](C(C)OC5OC(CO)C(O)C(O)C5O)CC[C@]43O)C2)OC(C)C1OC1OC(CO)C(O)C(O)C1O (some centres undefined) | SK-MEL-2 melanoma | > 100 µM |
| O=S1(=O)c2cnccc2NC(=NCc2ccccc2)N1c1ccccc1 | SK-MEL-2 melanoma | > 100 µM |
| CCN1C(=O)C(=C/C=C/c2ccc(N(CC)CC)cc2)C(=O)N(CC)C1=S | SK-MEL-2 melanoma | > 100 µM |
| CN1N=C(c2ccncc2)OC1c1ccccc1F (centres undefined) | SK-MEL-2 melanoma | > 100 µM |
| CC1=NNC(=O)C1C1CC(c2c[nH]c3ccccc23)=NN=C1Cl (centres undefined) | SK-MEL-2 melanoma | > 100 µM |
| Cc1cc(NS(=O)(=O)c2ccc(NC(NC(=O)C(C(F)(F)F)C(F)(F)F)(C(F)(F)F)C(F)(F)F)cc2)no1 | SK-MEL-2 melanoma | > 100 µM |
| c1ccc2c(c1)CCCC/C2=N/OCC1CO1 (centres undefined) | SK-MEL-2 melanoma | > 100 µM |
| COc1ccc(C2=C(N3CCc4ccccc43)C(=O)NC2=O)cc1 | SK-MEL-2 melanoma | > 25 µM |
| CC(C)N1CN(c2ccccc2)C2(CCN(CCCC(=O)c3ccc(F)cc3)CC2)C1=O | SK-MEL-2 melanoma | 28.3 µM |
